- method description: self-splicing fitness, log relative to wild type (ln ratio); higher = more splicing; Tetrahymena group I intron in knt gene, E. coli kanamycin selection, DiMSum; sequences stand for … in CUCUCU…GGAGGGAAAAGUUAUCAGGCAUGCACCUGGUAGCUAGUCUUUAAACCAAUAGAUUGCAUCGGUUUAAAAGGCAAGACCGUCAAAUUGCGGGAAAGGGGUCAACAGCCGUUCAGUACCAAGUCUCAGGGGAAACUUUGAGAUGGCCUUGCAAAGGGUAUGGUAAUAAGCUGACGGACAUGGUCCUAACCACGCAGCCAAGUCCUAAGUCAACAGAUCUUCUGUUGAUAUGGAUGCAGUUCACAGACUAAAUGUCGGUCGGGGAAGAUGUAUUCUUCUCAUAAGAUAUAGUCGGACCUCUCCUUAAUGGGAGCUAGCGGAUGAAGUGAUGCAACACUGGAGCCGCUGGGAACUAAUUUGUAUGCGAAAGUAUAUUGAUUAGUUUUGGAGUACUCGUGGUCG;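 note: selection with 25 µg/mL kanamycin versus none on LB agar overnight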
- experimental context: 37 °C
Decide using self-splicing fitness (ln): a value greater than or equal to -1 is condition met, a smaller one is condition not met.

// inclusive: self-splicing fitness (ln) at least -1? input: ACUUAGCAAUAUUACGCCAC
condition not met

Note, next up: CCCCAGCAAUAUUACGUAAG
condition not met

Cool, now UGAAAGCAAUAUUACGAACU
condition met

Continue with CUUGAGCAAUAUUACGAUCG
condition met

Likewise for GGGAAGCAAUAUUACGGUGC ?
condition met

What do we get for CAAAAGCAAUAUUACGAUGA ?
condition met

GAAGAGCAAUAUUACGUACA , same question.
condition not met

Do the same for UCGUAGCAAUAUUACGCAAA please
condition not met

Then this sequence: AACUAGCAAUAUUACGGACC
condition met

Another sequence to look at: ACUGAGCAAUAUUACGUAGA
condition not met

Repeat for the following sequence: CGAUAGCAAUAUUACGCGCA
condition met

// repeat for AAAUAGCAAUAUUACGAAAC and report
condition not met

Try this sequence next: GAUUAGCAAUAUUACGACGA
condition met

AAAGAGCAAUAUUACGUCGA , same question.
condition not met

Let us now turn to AAGAAGCAAUAUUACGCGUC
condition not met

Same again, this time with UUAUAGCAAUAUUACGGGAG
condition not met

---

- method description: self-splicing fitness, log relative to wild type (ln ratio); higher = more splicing; Tetrahymena group I intron in knt gene, E. coli kanamycin selection, DiMSum; sequences stand for … in CUCUCU…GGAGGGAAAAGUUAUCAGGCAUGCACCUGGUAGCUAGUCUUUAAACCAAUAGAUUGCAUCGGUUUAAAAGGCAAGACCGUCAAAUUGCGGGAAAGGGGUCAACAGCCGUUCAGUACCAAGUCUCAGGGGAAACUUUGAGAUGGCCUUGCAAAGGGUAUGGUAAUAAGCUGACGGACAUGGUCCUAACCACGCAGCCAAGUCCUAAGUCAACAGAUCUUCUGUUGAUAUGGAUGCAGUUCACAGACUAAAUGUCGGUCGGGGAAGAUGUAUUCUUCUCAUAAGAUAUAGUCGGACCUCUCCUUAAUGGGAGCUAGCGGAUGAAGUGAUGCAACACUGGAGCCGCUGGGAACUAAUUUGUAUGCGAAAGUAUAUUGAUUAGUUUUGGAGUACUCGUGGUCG
- experimental context: 37 °C
Assign TRUE whenever self-splicing fitness (ln) does not fall below -0.7; assign FALSE whenever it does.

# check: self-splicing fitness (ln) of UCUAAGCAAUAUUACGCCUU is greater than or equal to -0.7
FALSE

Would you kindly repeat that for UUUUAGCAAUAUUACGAAUA ?
FALSE

// next record GUCGAGCAAUAUUACGCCAU
FALSE

What about GCAGAGCAAUAUUACGAAGU ?
FALSE

UGCUAGCAAUAUUACGGUAA ?
FALSE

Check UAGGAGCAAUAUUACGGCGU too.
FALSE

Quick one: UUGCAGCAAUAUUACGAGGA
FALSE

Same read-out for UAUGAGCAAUAUUACGAGUG ?
TRUE

Then what about the sequence GCCUAGCAAUAUUACGGAAU ?
TRUE

Record: CGCCAGCAAUAUUACGUGAA
FALSE

Next: AGACAGCAAUAUUACGACUU
TRUE

Also check CUAUAGCAAUAUUACGACAA
FALSE

Request: UGCUAGCAAUAUUACGAGUG
FALSE

Would you kindly repeat that for GUGCAGCAAUAUUACGACGA ?
TRUE

Here is the next sequence: GUGAAGCAAUAUUACGGCGG
FALSE

For UGACAGCAAUAUUACGAUCC then?
TRUE

Same read-out for GUACAGCAAUAUUACGCCCA ?
TRUE

Try this sequence next: UGGUAGCAAUAUUACGCCAG
FALSE

What do you have for GCCUAGCAAUAUUACGUGUU ?
TRUE

Input AGACAGCAAUAUUACGAACU
TRUE

Same thing, different sequence: UCCAAGCAAUAUUACGAUCA
FALSE

Follow-up item: GACAAGCAAUAUUACGGAAA
FALSE

Now consider GAAUAGCAAUAUUACGGCAA .
TRUE

Same question, CUUUAGCAAUAUUACGUACC this time
FALSE

Param item: AAGCAGCAAUAUUACGUGUG
FALSE

Can you handle GUCCAGCAAUAUUACGCCAU next?
FALSE

Try this sequence too: AAGUAGCAAUAUUACGUGUC
FALSE

Similarly, AUCUAGCAAUAUUACGACUA ?
TRUE

Now the sequence AGGGAGCAAUAUUACGAUUC
FALSE

// same read-out, input: CGUCAGCAAUAUUACGGCGC
FALSE

What do you have for ACGGAGCAAUAUUACGGGGG ?
FALSE

How about this sequence: UAUUAGCAAUAUUACGCUCU
TRUE

And then CAGGAGCAAUAUUACGCUUG , what is it?
FALSE

Another sequence to look at: UAUAAGCAAUAUUACGGCUC
TRUE

---

Please respond with reported self-splicing fitness (ln) for every item in the list.
- method description: self-splicing fitness, log relative to wild type (ln ratio); higher = more splicing; Tetrahymena group I intron in knt gene, E. coli kanamycin selection, DiMSum; sequences stand for … in CUCUCU…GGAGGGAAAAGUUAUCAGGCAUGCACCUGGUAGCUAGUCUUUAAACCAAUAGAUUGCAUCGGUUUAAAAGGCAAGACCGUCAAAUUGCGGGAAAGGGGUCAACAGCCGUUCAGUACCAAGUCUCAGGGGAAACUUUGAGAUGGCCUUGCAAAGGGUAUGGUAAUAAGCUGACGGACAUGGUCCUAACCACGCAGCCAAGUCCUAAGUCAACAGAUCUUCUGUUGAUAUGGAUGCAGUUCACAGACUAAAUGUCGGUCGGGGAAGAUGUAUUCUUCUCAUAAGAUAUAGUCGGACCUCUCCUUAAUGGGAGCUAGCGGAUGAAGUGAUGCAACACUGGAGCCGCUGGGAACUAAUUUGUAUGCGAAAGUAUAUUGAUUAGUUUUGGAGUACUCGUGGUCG
- experimental context: 30 °C

Return reported self-splicing fitness (ln); argument: CUUGAGCAAUAUUACGAUUA
-3.25

Can you handle UAAAAGCAAUAUUACGAGAA next?
-2.18

Also, GAUAAGCAAUAUUACGGCUG please.
-0.569

Can you check GAAUAGCAAUAUUACGGCAA next?
-0.403

Same again, this time with UCACAGCAAUAUUACGUCCG
-1.21

// repeat for AUAGAGCAAUAUUACGUGGU and report
-2.91

Also UGUCAGCAAUAUUACGGCUU ?
-0.428

How about UAACAGCAAUAUUACGUGGG ?
-4.35

Quick one: GUUCAGCAAUAUUACGAUAG
-2.65

Try this sequence too: CGCGAGCAAUAUUACGUUGA
-3.51

And what about the sequence CCUCAGCAAUAUUACGGAUU ?
-4.3

What do we get for UAAAAGCAAUAUUACGUUUU ?
-3.26

Now consider GCAUAGCAAUAUUACGUGUU .
-3.84

// same read-out, input: AAAAAGCAAUAUUACGCGUU
-2.73

And what about the sequence CUUUAGCAAUAUUACGAGGU ?
-3.4

Param item: UAAAAGCAAUAUUACGCACG
-0.983

And then AAUCAGCAAUAUUACGUCCU , what is it?
0.497

GAUUAGCAAUAUUACGCAUA , same question.
-2.08

Then what about the sequence UUUCAGCAAUAUUACGAGAA ?
-1.92

Also UAGAAGCAAUAUUACGACAC , if possible.
-1.77

Another sequence to check: CCUGAGCAAUAUUACGCUAA
-3.04

Next: AAUGAGCAAUAUUACGGAAG
-3.49

Please answer likewise for UCGUAGCAAUAUUACGCCUU
-2.21

Moving on to UAUCAGCAAUAUUACGGUAU
-3.73

Entry ACUCAGCAAUAUUACGUUGU please
-3.45

Try the sequence UGCCAGCAAUAUUACGCCUG
-2.1

Okay, and AGCUAGCAAUAUUACGGUCA ?
-0.312

Could you do the same for UACGAGCAAUAUUACGUCCU , please?
-2.87

Entry AAUCAGCAAUAUUACGACGA please
-0.461

Next record, please: CAACAGCAAUAUUACGGGUU
-3.14

Likewise for UCGCAGCAAUAUUACGUCAU ?
-3.77

Next sequence: GCUAAGCAAUAUUACGGAGU
-4.27

Further, for CGACAGCAAUAUUACGUAAG ?
-0.425

Please answer likewise for UCGGAGCAAUAUUACGAAUG
-4.16
